# Tested on: T98 cells
# Assay procedure: Cell viability assay (PrestoBlue, 5 d) in T98 glioma cells
# Type: cell-based
# Run conditions: library screen, 5 d treatment, mean of three independent experiments in triplicates, read-out: EC50 T98 ± SEM
Observed property: EC50 (µM)
// return numeric value only (unit: µM, not printed)

Query: Give the measured EC50 of COc1cc(-c2nn(CCN3CCC(N(C)C)CC3)c3ncnc(N)c23)ccc1NC(=O)Cc1ccccc1 .
Result: 22.8

Query: Give the measured EC50 of COc1cc(-c2nn(CCN3CCC(N(C)C)CC3)c3ncnc(N)c23)ccc1NC(=O)CCc1ccccc1 .
Result: 11.1

Query: Give the measured EC50 of COc1cc(-c2nn(CCN3CCC(N4CCCC4)CC3)c3ncnc(N)c23)ccc1NC(=O)OC(C)(C)C [eCF598] .
Result: 16.4

Query: Give the measured EC50 of Nc1ncnc2c1c(-c1ccc(F)cc1)nn2CC1CCCC1 .
Result: 24.6
